biological target: Heme; assay: Binding affinity to heme assessed as inhibition of 1-oleoyl-rac-glycerol-induced beta-hematin polymerization by UV spectrophotometry
Record form. Attribute: IC50. Fill in for each entry.
Express the result in µM but write the number alone.

For C[C@@H](CCCN(C)C)Nc1ccnc2cc(Cl)ccc12 , what is its reported IC50? 150

For C[C@H](CCCN1CCOCC1)Nc1ccnc2cc(Cl)ccc12 , what is its reported IC50? 150

For CCN(C)CCC[C@@H](C)Nc1ccnc2cc(Cl)ccc12 , what is its reported IC50? 140

For C[C@@H](CCCNC(C)(C)C)Nc1ccnc2cc(Cl)ccc12 , what is its reported IC50? 150

For C[C@H](CCCNC(C)(C)C)Nc1ccnc2cc(Cl)ccc12 , what is its reported IC50? 170

For CCN(C)CCC[C@H](C)Nc1ccnc2cc(Cl)ccc12 , what is its reported IC50? 150

For C[C@H](CCCN(C)C)Nc1ccnc2cc(Cl)ccc12 , what is its reported IC50? 190

For CCCCCCCCN(CCCCCCCC)CCC[C@H](C)Nc1ccnc2cc(Cl)ccc12 , what is its reported IC50? 200

For CCCCCCCCN(CCCCCCCC)CCC[C@@H](C)Nc1ccnc2cc(Cl)ccc12 , what is its reported IC50? 190

For C[C@@H](CCCN1CCN(C)CC1)Nc1ccnc2cc(Cl)ccc12 , what is its reported IC50? 140

For C[C@@H](CCCN1CCCCC1)Nc1ccnc2cc(Cl)ccc12 , what is its reported IC50? 150

For C[C@H](CCCN1CCN(C)CC1)Nc1ccnc2cc(Cl)ccc12 , what is its reported IC50? 180

For C[C@@H](CCCN1CCOCC1)Nc1ccnc2cc(Cl)ccc12 , what is its reported IC50? 190

For C[C@H](CCCN1CCCCC1)Nc1ccnc2cc(Cl)ccc12 , what is its reported IC50? 130

For C[C@@H](CCCN1CCCC1)Nc1ccnc2cc(Cl)ccc12 , what is its reported IC50? 180

For C[C@H](CCCN1CCCC1)Nc1ccnc2cc(Cl)ccc12 , what is its reported IC50? 140

---

test: Binding affinity to hematin in 40% aqueous DMSO and 20 mM HEPES buffer at pH 7.5 at 25 degC
quantity name: log K
Give a plain numeric answer without units written out.

For C[C@@H](CCCN(C)C)Nc1ccnc2cc(Cl)ccc12 , what is its reported log K? 4.95

For C[C@H](CCCN1CCCCC1)Nc1ccnc2cc(Cl)ccc12 , what is its reported log K? 7.19

For C[C@H](CCCNC(C)(C)C)Nc1ccnc2cc(Cl)ccc12 , what is its reported log K? 5.71

For C[C@H](CCCN1CCCC1)Nc1ccnc2cc(Cl)ccc12 , what is its reported log K? 6.02

For CCN(C)CCC[C@H](C)Nc1ccnc2cc(Cl)ccc12 , what is its reported log K? 5.61

For C[C@H](CCCN1CCN(C)CC1)Nc1ccnc2cc(Cl)ccc12 , what is its reported log K? 5.53

For CCN(C)CCC[C@@H](C)Nc1ccnc2cc(Cl)ccc12 , what is its reported log K? 3.63

For C[C@@H](CCCNC(C)(C)C)Nc1ccnc2cc(Cl)ccc12 , what is its reported log K? 5.04

For CCCCCCCCN(CCCCCCCC)CCC[C@@H](C)Nc1ccnc2cc(Cl)ccc12 , what is its reported log K? 5.02

For C[C@H](CCCN(C)C)Nc1ccnc2cc(Cl)ccc12 , what is its reported log K? 5.77

For CCCCCCCCN(CCCCCCCC)CCC[C@H](C)Nc1ccnc2cc(Cl)ccc12 , what is its reported log K? 5.58

---

test: Selectivity index, ratio of CC50 for african green monkey Vero cells to IC50 for chloroquine-sensitive Plasmodium falciparum; type: functional
Record form. Attribute: Selectivity Index. Fill in for each entry.

For C[C@@H](CCCNC(C)(C)C)Nc1ccnc2cc(Cl)ccc12 , what is its reported Selectivity Index? 7100

For C[C@@H](CCCN1CCN(C)CC1)Nc1ccnc2cc(Cl)ccc12 , what is its reported Selectivity Index? 14744

For C[C@H](CCCN1CCCCC1)Nc1ccnc2cc(Cl)ccc12 , what is its reported Selectivity Index? 4257

For C[C@H](CCCN(C)C)Nc1ccnc2cc(Cl)ccc12 , what is its reported Selectivity Index? 28483

For C[C@@H](CCCN1CCOCC1)Nc1ccnc2cc(Cl)ccc12 , what is its reported Selectivity Index? 19256

---

experiment: Selectivity index, ratio of CC50 for african green monkey Vero cells to IC50 for chloroquine-sensitive Plasmodium falciparum; type: functional
quantity name: Selectivity Index

For C[C@@H](CCCN1CCCC1)Nc1ccnc2cc(Cl)ccc12 , what is its reported Selectivity Index? 1469

For CCN(C)CCC[C@@H](C)Nc1ccnc2cc(Cl)ccc12 , what is its reported Selectivity Index? 15838

For C[C@@H](CCCN(C)C)Nc1ccnc2cc(Cl)ccc12 , what is its reported Selectivity Index? 12483

For C[C@@H](CCCN1CCCCC1)Nc1ccnc2cc(Cl)ccc12 , what is its reported Selectivity Index? 20154

For C[C@H](CCCN1CCOCC1)Nc1ccnc2cc(Cl)ccc12 , what is its reported Selectivity Index? 4186

For CCCCCCCCN(CCCCCCCC)CCC[C@H](C)Nc1ccnc2cc(Cl)ccc12 , what is its reported Selectivity Index? 103.94

For CCCCCCCCN(CCCCCCCC)CCC[C@@H](C)Nc1ccnc2cc(Cl)ccc12 , what is its reported Selectivity Index? 44.28

For C[C@H](CCCNC(C)(C)C)Nc1ccnc2cc(Cl)ccc12 , what is its reported Selectivity Index? 24459

For CCN(C)CCC[C@H](C)Nc1ccnc2cc(Cl)ccc12 , what is its reported Selectivity Index? 26389

For C[C@H](CCCN1CCN(C)CC1)Nc1ccnc2cc(Cl)ccc12 , what is its reported Selectivity Index? 18245

For C[C@H](CCCN1CCCC1)Nc1ccnc2cc(Cl)ccc12 , what is its reported Selectivity Index? 14140

---

experiment: Binding affinity to hematin in 40% aqueous DMSO and 20 mM HEPES buffer at pH 7.5 at 25 degC
Labelling: log K reported below 5 becomes class 1; at or above becomes class 0.

Strictly below 5: is that where log K of C[C@H](CCCN1CCOCC1)Nc1ccnc2cc(Cl)ccc12 sits? class 0

Strictly below 5: is that where log K of C[C@@H](CCCN1CCOCC1)Nc1ccnc2cc(Cl)ccc12 sits? class 0

Strictly below 5: is that where log K of C[C@@H](CCCN1CCN(C)CC1)Nc1ccnc2cc(Cl)ccc12 sits? class 1

Strictly below 5: is that where log K of C[C@@H](CCCN1CCCCC1)Nc1ccnc2cc(Cl)ccc12 sits? class 0

Strictly below 5: is that where log K of C[C@@H](CCCN1CCCC1)Nc1ccnc2cc(Cl)ccc12 sits? class 0

---

test system: Plasmodium falciparum; assay: Antiplasmodial activity against chloroquine-resistant Plasmodium falciparum K1 by Malaria SYBR Green I-nucleic acid staining based fluorescence assay; format: functional, organism-based
quantity name: log10(IC50) (log10 of the value in nM)
Scale type: logarithmic (base 10). Underlying IC50 unit: nM.

For C[C@@H](CCCN1CCCC1)Nc1ccnc2cc(Cl)ccc12 , what is its reported log10(IC50)? 1.78

For C[C@@H](CCCN1CCOCC1)Nc1ccnc2cc(Cl)ccc12 , what is its reported log10(IC50)? 1.75

For CCN(C)CCC[C@H](C)Nc1ccnc2cc(Cl)ccc12 , what is its reported log10(IC50)? 2.41

For CCN(C)CCC[C@@H](C)Nc1ccnc2cc(Cl)ccc12 , what is its reported log10(IC50)? 2.46

For C[C@H](CCCN1CCCCC1)Nc1ccnc2cc(Cl)ccc12 , what is its reported log10(IC50)? 2.73

For C[C@H](CCCN1CCOCC1)Nc1ccnc2cc(Cl)ccc12 , what is its reported log10(IC50)? 2.03

For C[C@H](CCCN(C)C)Nc1ccnc2cc(Cl)ccc12 , what is its reported log10(IC50)? 2.31

For C[C@@H](CCCN1CCCCC1)Nc1ccnc2cc(Cl)ccc12 , what is its reported log10(IC50)? 2.08

For CCCCCCCCN(CCCCCCCC)CCC[C@@H](C)Nc1ccnc2cc(Cl)ccc12 , what is its reported log10(IC50)? 2.10

For C[C@H](CCCN1CCCC1)Nc1ccnc2cc(Cl)ccc12 , what is its reported log10(IC50)? 2.10

For C[C@@H](CCCN1CCN(C)CC1)Nc1ccnc2cc(Cl)ccc12 , what is its reported log10(IC50)? 1.34

For C[C@H](CCCN1CCN(C)CC1)Nc1ccnc2cc(Cl)ccc12 , what is its reported log10(IC50)? 2.02

For CCCCCCCCN(CCCCCCCC)CCC[C@H](C)Nc1ccnc2cc(Cl)ccc12 , what is its reported log10(IC50)? 0.90

For C[C@@H](CCCN(C)C)Nc1ccnc2cc(Cl)ccc12 , what is its reported log10(IC50)? 2.55

Origin of values: ChEMBL document CHEMBL3352664
